Give Liposome size, (mean ± SD) nm for every item shown.
test: Loading of ATR inhibitors into TEA-SOS liposomes and liposome characterization; format: physicochemical; conditions: liposomes loaded with the ATR inhibitor
Give bare numbers, in nm.

Some compounds with known Liposome size, (mean ± SD) nm results, for comparison:
compound=CCN(CC)C1CCN(CCS(=O)(=O)c2ccc(-c3cnc(N)c(C(=O)Nc4ccccc4)n3)cc2)CC1 attribute_measured="Liposome size, (mean ± SD) nm" units_of_measure=nm reported_measurement=119
compound=CNCc1ccc(-c2cc(-c3nc(-c4ccc(S(=O)(=O)C(C)C)cc4)cnc3N)on2)cc1 attribute_measured="Liposome size, (mean ± SD) nm" units_of_measure=nm reported_measurement=121
compound="CC(CN(C)C)S(=O)(=O)c1ccc(-c2cnc(N)c(C(=O)Nc3ccccc3)n2)cc1 (stereo not drawn)" attribute_measured="Liposome size, (mean ± SD) nm" units_of_measure=nm reported_measurement=122

Give me Liposome size, (mean ± SD) nm for each of these compounds, listed below.
1. CCN(CC)CCS(=O)(=O)c1ccc(-c2cnc(N)c(C(=O)Nc3ccccc3)n2)cc1
2. CN(C)CCC1CCN(CCS(=O)(=O)c2ccc(-c3cnc(N)c(C(=O)Nc4ccccc4)n3)cc2)CC1
3. CN1CCN(CCS(=O)(=O)c2ccc(-c3cnc(N)c(C(=O)Nc4ccccc4)n3)cc2)CC1

Result:
[130, 120, 120]
